Data provenance is paper PMC10992476.

# Substrate: O=C(O)C(=O)Cc1ccc(O)c(O)c1
# ASSAY INFO: purified protein
# Format: biochemical, Lactobacillus sp. CGMCC 9967
# CONDITION DETAILS: 2 mM NADH, Tris-HCl 50 mM pH 7.0, 30 °C
VALUE KIND: kcat (s⁻¹)
Answers are plain numbers, in s⁻¹.

protein LaPPR (Lactobacillus sp. CGMCC 9967; H143D/H89M/P256C) (protein, homodimer) MMKILNSFSLKPEQRQTLEAAGHTVIDADKLDDATAQQIDVVYGWNAAATRVNFDRLQFVQAMSAGVDYLPLAELAKHHVLLANTSGIMAEPIAEYVLGALFTISRGILPAIRADRDMWTLRQERPPMTLLKGKTAVIFGTGDIGSTIATKLQALGLHTIGVSAHGRPAAGFDQVMTDVATHEAAGRADVVINALPLTPDTKHFYDEAFFAAASKQPLFINIGRGPSVDMAALTQALKNKQISAAALDVVDPEPLCQDSPLWGMTNVLLTPHISGTVPQLRDKVFKIFNDNLKTLISSGQLASHQVDLTRGY , kcat observed: 5.74

kcat for LaPPR (Lactobacillus sp. CGMCC 9967; H89M) (protein, homodimer) MMKILNSFSLKPEQRQTLEAAGHTVIDADKLDDATAQQIDVVYGWNAAATRVNFDRLQFVQAMSAGVDYLPLAELAKHHVLLANTSGIMAEPIAEYVLGALFTISRGILPAIRADRDMWTLRQERPPMTLLKGKTAVIFGTGHIGSTIATKLQALGLHTIGVSAHGRPAAGFDQVMTDVATHEAAGRADVVINALPLTPDTKHFYDEAFFAAASKQPLFINIGRGPSVDMAALTQALKNKQISAAALDVVDPEPLPQDSPLWGMTNVLLTPHISGTVPQLRDKVFKIFNDNLKTLISSGQLASHQVDLTRGY is 1.37

Batch request: kcat per item, same order as input.
1. LaPPR (Lactobacillus sp. CGMCC 9967; H143D) (protein, homodimer) MMKILNSFSLKPEQRQTLEAAGHTVIDADKLDDATAQQIDVVYGWNAAATRVNFDRLQFVQAMSAGVDYLPLAELAKHHVLLANTSGIHAEPIAEYVLGALFTISRGILPAIRADRDMWTLRQERPPMTLLKGKTAVIFGTGDIGSTIATKLQALGLHTIGVSAHGRPAAGFDQVMTDVATHEAAGRADVVINALPLTPDTKHFYDEAFFAAASKQPLFINIGRGPSVDMAALTQALKNKQISAAALDVVDPEPLPQDSPLWGMTNVLLTPHISGTVPQLRDKVFKIFNDNLKTLISSGQLASHQVDLTRGY
2. LaPPR (Lactobacillus sp. CGMCC 9967; H143D/H89M) (protein, homodimer) MMKILNSFSLKPEQRQTLEAAGHTVIDADKLDDATAQQIDVVYGWNAAATRVNFDRLQFVQAMSAGVDYLPLAELAKHHVLLANTSGIMAEPIAEYVLGALFTISRGILPAIRADRDMWTLRQERPPMTLLKGKTAVIFGTGDIGSTIATKLQALGLHTIGVSAHGRPAAGFDQVMTDVATHEAAGRADVVINALPLTPDTKHFYDEAFFAAASKQPLFINIGRGPSVDMAALTQALKNKQISAAALDVVDPEPLPQDSPLWGMTNVLLTPHISGTVPQLRDKVFKIFNDNLKTLISSGQLASHQVDLTRGY
3. LaPPR (Lactobacillus sp. CGMCC 9967) (protein, homodimer) MMKILNSFSLKPEQRQTLEAAGHTVIDADKLDDATAQQIDVVYGWNAAATRVNFDRLQFVQAMSAGVDYLPLAELAKHHVLLANTSGIHAEPIAEYVLGALFTISRGILPAIRADRDMWTLRQERPPMTLLKGKTAVIFGTGHIGSTIATKLQALGLHTIGVSAHGRPAAGFDQVMTDVATHEAAGRADVVINALPLTPDTKHFYDEAFFAAASKQPLFINIGRGPSVDMAALTQALKNKQISAAALDVVDPEPLPQDSPLWGMTNVLLTPHISGTVPQLRDKVFKIFNDNLKTLISSGQLASHQVDLTRGY

2.08
2.35
1.21
